Would you mind telling me the reported pIC50 of each entry?
TARGET OF ASSAY: Cathepsin D (Cat D) (Homo sapiens (Human))
TEST METHOD NOTES: In vitro enzymatic Cathepsin D (Cat D) FRET assay
Format: biochemical
MEASUREMENT CONTEXT: average; read-out: CatD IC50
pIC50: −log10 of the molar value.

Req: Request the reported pIC50 associated with CNC(=O)c1ccc(C#Cc2ccc(F)c([C@]3(CF)C[C@@H](C(F)(F)F)OC(N)=N3)c2)nc1
Resp: < 3.40

Req: Request the reported pIC50 associated with COc1cnc(C(=O)Nc2cc(Cl)c(F)c([C@]3(C)C[C@@H](C(F)(F)F)OC(N)=N3)c2)c(C)n1
Resp: < 3.40

Req: Request the reported pIC50 associated with COc1cc(Cl)cnc1C(=O)Nc1cc(C)c(F)c([C@]2(CF)C[C@@H](C(F)(F)F)OC(N)=N2)c1
Resp: < 3.40

----------
Would you mind telling me the reported log10(IC50) of each entry?
TARGET OF ASSAY: Beta Secretase enzyme (BACE) (Homo sapiens (Human), UniProt P56817)
Sequence (P56817 46-501): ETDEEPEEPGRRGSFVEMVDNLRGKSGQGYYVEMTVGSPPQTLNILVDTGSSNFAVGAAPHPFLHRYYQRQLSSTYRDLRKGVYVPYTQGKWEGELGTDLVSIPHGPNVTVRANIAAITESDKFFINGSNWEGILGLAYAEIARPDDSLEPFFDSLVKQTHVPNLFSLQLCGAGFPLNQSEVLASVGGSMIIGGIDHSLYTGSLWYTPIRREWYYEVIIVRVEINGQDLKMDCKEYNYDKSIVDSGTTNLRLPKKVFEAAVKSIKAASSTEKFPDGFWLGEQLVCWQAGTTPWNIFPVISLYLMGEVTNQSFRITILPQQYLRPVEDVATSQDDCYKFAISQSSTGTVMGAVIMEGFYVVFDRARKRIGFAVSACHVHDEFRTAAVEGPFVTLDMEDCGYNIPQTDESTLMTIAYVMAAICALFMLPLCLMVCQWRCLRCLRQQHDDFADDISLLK
TEST METHOD NOTES: In vitro enzymatic BACE FRET assay
Format: biochemical
MEASUREMENT CONTEXT: average IC50; read-out: BACE 1 FRET assay IC50
The figures below represent log10 of IC50, where IC50 is stated in nM.

Req: Request the reported log10(IC50) associated with NC1=N[C@](CF)(c2cc(Oc3cccc(C(F)(F)F)n3)ccc2F)C[C@@H](C(F)(F)F)O1
Resp: 3.53

Req: Request the reported log10(IC50) associated with NC1=N[C@](CF)(c2nc(NC(=O)c3ccc(Cl)cn3)ccc2F)C[C@@H](C(F)(F)F)O1
Resp: 4.51

Req: Request the reported log10(IC50) associated with NC1=N[C@](CF)(c2cc(Nc3nccc4cc(Cl)cnc34)ccc2F)C[C@@H](C(F)(F)F)O1
Resp: 1.26

Req: Request the reported log10(IC50) associated with Cc1cc(Cl)cnc1C(=O)Nc1ccc(F)c([C@]2(CF)C[C@@H](C(F)(F)F)OC(N)=N2)c1
Resp: 0.90

Req: Request the reported log10(IC50) associated with C[C@@]1(c2cc(Nc3nccc4cc(C#N)cnc34)cnc2F)C[C@@H](C(F)(F)F)OC(N)=N1
Resp: 1.98

Req: Request the reported log10(IC50) associated with N#Cc1cnc(C(=O)Nc2ccc(F)c([C@]3(CF)C[C@@H](C(F)(F)F)OC(N)=N3)c2)c(Cl)c1
Resp: 1.45

----------
TARGET OF ASSAY: Cathepsin D (Cat D) (Homo sapiens (Human), UniProt P07339)
Sequence (P07339 65-412, species assumed): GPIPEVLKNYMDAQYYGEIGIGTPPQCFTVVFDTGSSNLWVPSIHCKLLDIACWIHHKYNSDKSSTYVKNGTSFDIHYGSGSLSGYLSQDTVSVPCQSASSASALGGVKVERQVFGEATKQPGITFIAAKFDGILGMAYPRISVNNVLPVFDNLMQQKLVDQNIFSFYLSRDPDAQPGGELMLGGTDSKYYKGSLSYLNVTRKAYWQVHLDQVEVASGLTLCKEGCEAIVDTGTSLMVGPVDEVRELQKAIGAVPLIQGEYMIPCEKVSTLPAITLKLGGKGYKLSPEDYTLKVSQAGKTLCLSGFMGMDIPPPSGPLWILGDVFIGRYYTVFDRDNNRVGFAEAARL
TEST METHOD NOTES: In vitro enzymatic Cathepsin D (Cat D) FRET assay
Type: biochemical
MEASUREMENT CONTEXT: average IC50, cathepsin D enzyme assay; read-out: CatD IC50
pIC50: −log10 of the molar value.
READOUT: pIC50

Req: Request the reported pIC50 associated with NC1=N[C@](CF)(c2cc(-c3ccc4cc(F)ccc4n3)ccc2F)C[C@@H](C(F)(F)F)O1
Resp: < 3.88

Req: Request the reported pIC50 associated with NC1=N[C@](CF)(c2cc(-c3ccc4ccc(F)cc4n3)ccc2F)C[C@@H](C(F)(F)F)O1
Resp: < 3.88

Req: Request the reported pIC50 associated with NC1=N[C@](CF)(c2cc(Nc3ncc(F)c4cc(Cl)cnc34)ccc2F)C[C@@H](C(F)(F)F)O1
Resp: < 3.88

Req: Request the reported pIC50 associated with NC1=N[C@](CF)(c2cc(NC(=O)c3ccc(C(F)F)cn3)ccc2F)C[C@@H](C(F)(F)F)O1
Resp: < 3.40

Req: Request the reported pIC50 associated with COc1ccc(C(=O)Nc2cnc(F)c([C@]3(C)C[C@@H](C(F)(F)F)OC(N)=N3)c2)nc1
Resp: < 3.40

Req: Request the reported pIC50 associated with C[C@@]1(c2cc(Nc3nc4cc(Cl)ccc4o3)ccc2F)C[C@@H](C(F)(F)F)OC(N)=N1
Resp: 3.79

Req: Request the reported pIC50 associated with NC1=N[C@](CF)(c2nc(NC(=O)c3nn(C(F)F)cc3Cl)ccc2F)C[C@@H](C(F)(F)F)O1
Resp: 2.93

Req: Request the reported pIC50 associated with NC1=N[C@](CF)(c2cc(NC(=O)c3cnc(OCc4ncco4)cn3)ccc2F)C[C@@H](C(F)(F)F)O1
Resp: < 3.40

Req: Request the reported pIC50 associated with C[C@@]1(c2cc(NC(=O)c3ccc(F)cn3)cnc2F)C[C@@H](C(F)(F)F)OC(N)=N1
Resp: < 3.40

Req: Request the reported pIC50 associated with CC#Cc1cncc(-c2ccc(F)c([C@]3(CF)C[C@@H](C(F)(F)F)OC(N)=N3)c2)c1
Resp: 3.66
